The measurements presented in this section are drawn from the supplement of paper PMC9334596.

Here, each record is paired with measured PER2::LUC luminescence data.
Tested on: mPer2Luc MEF
Experiment: PER2::LUC luminescence relative to vehicle control (fold of vehicle); higher = higher PER2::LUC reporter signal
Conditions: time after treatment 30 h; 10 µM
In all, about 5,300 compounds were measured (“PER2::LUC luminescence relative to vehicle control”: median about 0.96, highest 2% from about 1.3 on). The list comes from a sample in which the highest values are over-represented; it also holds close analogues and randomly drawn compounds.
Could you respond with only the numeric value?

compound	readout_kind	endpoint_result
C/C(=C\C(=O)Nc1ccccc1C(=O)O)c1ccc2ccccc2c1	PER2::LUC luminescence	1.46
O=C[C@H](O)[C@H](O)CO	PER2::LUC luminescence	0.987
CCCC1(C)C(C#N)(C#N)C1(C#N)C#N	PER2::LUC luminescence	1.04

In the following, a different compound is considered.
Task: Check the records and state PER2::LUC luminescence for C/C=C(/C)C(=O)O[C@H]1CC(C)=CC(=O)[C@@]2(C)CC[C@@](O)(C(C)C)[C@H]12
Output: 0.988
